biological target: ADRBK1 (human); experiment: radiometric filter-binding kinase assay, Kinase HotSpot; details: compound 0.5 µM; ATP 10 µM
quantity-kind: residual activity (%)
Answer in %, number only, no unit symbol.

Example entries begin here.
cpd-smiles | result
CCOc1cc2ncnc(Nc3cccc(Br)c3)c2cc1OCC | 95.4
O=S(=O)(NCCNC/C=C/c1ccc(Br)cc1)c1cccc2cnccc12 | 91.3
Cn1cc(/C=C2\C(=O)Nc3ccc(S(N)(=O)=O)cc32)c2ccccc21 | 100
O=c1[nH]c2ccccc2n1C1CCN(Cc2ccc(-c3nc4cc5[nH]cnc5cc4nc3-c3ccccc3)cc2)CC1 | 95.3
N#CCCc1ccc2c(c1)-c1[nH]c3ccc([N+](=O)[O-])cc3c1CC(=O)N2 | 96.4
O=c1c(-c2ccc(F)cc2)c(-c2ccncc2)[nH]n1-c1ccc(Cl)cc1 | 106

Record request: residual activity value, item FC(F)(F)c1ccc(/C=C/c2nc(COc3ccc(CCCCn4ccnn4)cc3)co2)cc1
113

Record request: residual activity value, item COc1cc2ncnc(Nc3ccc(O)c(Br)c3)c2cc1OC
99

Record request: residual activity value, item Nc1ncnc2c1cnn2-c1ccccc1
99.4

Record request: residual activity value, item COc1cccc(-c2cc(=O)c3ccccc3o2)c1N
99.6

---

biological target: TAOK3 (human) (UniProt Q9H2K8); test: radiometric filter-binding kinase assay, Kinase HotSpot; details: compound 0.5 µM; ATP 10 µM
Binary label based on residual activity with cut-off 90%: below gives 1, not below gives 0.

cpd-smiles | target-of-assay | qualitative-label
CCc1nc(-c2ccc(OC)cc2)[nH]c1-c1ccncc1 | TAOK3 (human) (UniProt Q9H2K8) | 0

# TODO verify residual activity < 90% strictly for this compound: Cc1cc(Nc2nc(-c3ccccc3)nc3ccccc23)n[nH]1
1

# TODO verify residual activity < 90% strictly for this compound: CCOc1cc2ncnc(Nc3cccc(Br)c3)c2cc1OCC
0

---

target: CDK5 CDK5R1 p35 (human) (UniProt Q00535+Q15078); assay: radiometric filter-binding kinase assay, Kinase HotSpot; details: compound 0.5 µM; ATP 10 µM
quantity-kind: residual activity (%)
Answer in %, number only, no unit symbol.

Example entries begin here.
cpd-smiles | target-of-assay | result
O=C1NC(=O)c2cc(Nc3ccc(F)cc3)c(Nc3ccc(F)cc3)cc21 | CDK5 CDK5R1 p35 (human) (UniProt Q00535+Q15078) | 98.5
O=c1c(-c2ccc(F)cc2)c(-c2ccncc2)[nH]n1-c1ccc(Cl)cc1 | CDK5 CDK5R1 p35 (human) (UniProt Q00535+Q15078) | 104
N#Cc1c(NC(=O)c2cccc3ccccc23)sc2c1CCCC2 | CDK5 CDK5R1 p35 (human) (UniProt Q00535+Q15078) | 105
O=c1c2ccccc2[nH]c(=S)n1CCN1CCC(=C(c2ccc(F)cc2)c2ccc(F)cc2)CC1 | CDK5 CDK5R1 p35 (human) (UniProt Q00535+Q15078) | 101
Nc1ncnc2c1cnn2-c1ccccc1 | CDK5 CDK5R1 p35 (human) (UniProt Q00535+Q15078) | 99.2

Now let's try a different one.
Record request: residual activity value, item COc1cccc(-c2cc(=O)c3ccccc3o2)c1N
101

---

Listing: residual activity of selected compounds
target: UniProt P07947; test: radiometric filter-binding kinase assay, Kinase HotSpot; details: compound 0.5 µM; ATP 10 µM
Sequence (P07947 whole entry, looked up): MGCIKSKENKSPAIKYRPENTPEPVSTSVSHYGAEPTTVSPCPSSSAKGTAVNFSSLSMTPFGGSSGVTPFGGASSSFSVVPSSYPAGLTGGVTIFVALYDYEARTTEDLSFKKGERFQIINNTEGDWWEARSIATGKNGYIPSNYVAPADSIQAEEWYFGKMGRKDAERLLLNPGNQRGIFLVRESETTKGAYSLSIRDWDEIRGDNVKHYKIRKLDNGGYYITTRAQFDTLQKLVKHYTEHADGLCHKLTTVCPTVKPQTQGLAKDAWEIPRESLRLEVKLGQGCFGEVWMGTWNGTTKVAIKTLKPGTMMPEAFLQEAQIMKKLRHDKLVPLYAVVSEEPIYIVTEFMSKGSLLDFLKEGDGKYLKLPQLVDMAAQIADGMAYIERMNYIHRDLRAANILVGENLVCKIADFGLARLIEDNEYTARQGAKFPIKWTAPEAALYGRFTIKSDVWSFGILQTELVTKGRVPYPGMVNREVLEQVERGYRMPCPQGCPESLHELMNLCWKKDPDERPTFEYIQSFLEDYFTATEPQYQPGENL
Answer in %, number only, no unit symbol.

cpd-smiles | residual activity (%)
N/C(=N\N=C/c1ccc(-c2cccc([N+](=O)[O-])c2)o1)N[N+](=O)[O-] | 95.6
N#Cc1c(NC(=O)c2cccc3ccccc23)sc2c1CCCC2 | 104

Record request: residual activity value, item COc1cc2c(N3CCN(C(=O)Nc4ccc(OC(C)C)cc4)CC3)ncnc2cc1OCCCN1CCCCC1
86.6

Record request: residual activity value, item O=c1[nH]c2ccccc2n1C1CCN(Cc2ccc(-c3nc4cc5[nH]cnc5cc4nc3-c3ccccc3)cc2)CC1
90.8

Record request: residual activity value, item COc1cc2ncnc(Nc3ccc(O)c(Br)c3)c2cc1OC
34.6

Record request: residual activity value, item N#C/C(=C1/Nc2ccccc2S1)c1ccnc(NCCc2cccnc2)n1
89.1

Record request: residual activity value, item COc1cc2c(cc1OC)-c1[nH]nc(Nc3cccc(F)c3)c1C2
61.3

Record request: residual activity value, item O=c1cc(N2CCOCC2)oc2c(-c3ccccc3)cccc12
101

Record request: residual activity value, item CCCCc1c(-c2ccc(O)cc2)[nH]c2nccnc12
46.5

Record request: residual activity value, item N#CCCc1ccc2c(c1)-c1[nH]c3ccc([N+](=O)[O-])cc3c1CC(=O)N2
35.8

---

Listing: residual activity of selected compounds
target: LCK (human); assay: radiometric filter-binding kinase assay, Kinase HotSpot; conditions: compound 0.5 µM; ATP 10 µM
Answer in %, number only, no unit symbol.

Example entries begin here.
cpd-smiles | target-of-assay | residual activity, %
Nc1ncnc2c1cnn2-c1ccccc1 | LCK (human) | 95.5
N#CCCc1ccc2c(c1)-c1[nH]c3ccc([N+](=O)[O-])cc3c1CC(=O)N2 | LCK (human) | 78.2
O=c1[nH]c2ccccc2n1C1CCN(Cc2ccc(-c3nc4cc5[nH]cnc5cc4nc3-c3ccccc3)cc2)CC1 | LCK (human) | 98.2
O=C(O)c1ccc2c3c1cccc3c(=O)n1c3ccccc3nc21 | LCK (human) | 101

Record request: residual activity value, item O=c1c(-c2ccc(F)cc2)c(-c2ccncc2)[nH]n1-c1ccc(Cl)cc1
101

Record request: residual activity value, item O=c1c2ccccc2[nH]c(=S)n1CCN1CCC(=C(c2ccc(F)cc2)c2ccc(F)cc2)CC1
99.5

Record request: residual activity value, item FC(F)(F)c1ccc(/C=C/c2nc(COc3ccc(CCCCn4ccnn4)cc3)co2)cc1
92.1

Record request: residual activity value, item O=C(c1ccccc1)c1ccc(N2CCOCC2)cc1O
101

Record request: residual activity value, item N#C/C(=C1/Nc2ccccc2S1)c1ccnc(NCCc2cccnc2)n1
98.3

Record request: residual activity value, item Cc1cc(Nc2nc(-c3ccccc3)nc3ccccc23)n[nH]1
75.6

Record request: residual activity value, item CCOc1cc2ncnc(Nc3cccc(Br)c3)c2cc1OCC
52.9

---

molecular target: CHEK1 (human) (UniProt O14757); test: radiometric filter-binding kinase assay, Kinase HotSpot; conditions: compound 0.5 µM; ATP 10 µM
Sequence (O14757 whole entry, looked up): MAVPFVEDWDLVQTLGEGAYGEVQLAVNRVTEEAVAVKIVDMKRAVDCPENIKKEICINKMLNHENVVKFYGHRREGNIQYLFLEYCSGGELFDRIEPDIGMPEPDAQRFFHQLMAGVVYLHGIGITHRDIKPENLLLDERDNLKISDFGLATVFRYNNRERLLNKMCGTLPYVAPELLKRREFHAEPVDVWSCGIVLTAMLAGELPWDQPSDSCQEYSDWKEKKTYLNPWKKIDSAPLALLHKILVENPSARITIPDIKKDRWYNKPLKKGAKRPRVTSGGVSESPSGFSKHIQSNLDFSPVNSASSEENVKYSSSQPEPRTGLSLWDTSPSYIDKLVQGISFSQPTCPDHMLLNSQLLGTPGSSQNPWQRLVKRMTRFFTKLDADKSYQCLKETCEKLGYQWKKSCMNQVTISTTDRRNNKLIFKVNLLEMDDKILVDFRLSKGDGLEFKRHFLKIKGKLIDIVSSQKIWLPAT
quantity-kind: residual activity

cpd-smiles | residual activity
O=c1c(-c2ccc(F)cc2)c(-c2ccncc2)[nH]n1-c1ccc(Cl)cc1 | 101%
COc1cc2c(cc1OC)-c1[nH]nc(Nc3cccc(F)c3)c1C2 | 92.4%
N#C/C(=C1/Nc2ccccc2S1)c1ccnc(NCCc2cccnc2)n1 | 94.6%

Now let's try a different one.
Checklist item: residual activity tested on CHEK1 (human) (UniProt O14757), entry N#CCCc1ccc2c(c1)-c1[nH]c3ccc([N+](=O)[O-])cc3c1CC(=O)N2 , value?
45.1%

---

target: FLT1 (human) (UniProt P17948); test: radiometric filter-binding kinase assay, Kinase HotSpot; settings: compound 0.5 µM; ATP 10 µM
Sequence (P17948 whole entry, looked up): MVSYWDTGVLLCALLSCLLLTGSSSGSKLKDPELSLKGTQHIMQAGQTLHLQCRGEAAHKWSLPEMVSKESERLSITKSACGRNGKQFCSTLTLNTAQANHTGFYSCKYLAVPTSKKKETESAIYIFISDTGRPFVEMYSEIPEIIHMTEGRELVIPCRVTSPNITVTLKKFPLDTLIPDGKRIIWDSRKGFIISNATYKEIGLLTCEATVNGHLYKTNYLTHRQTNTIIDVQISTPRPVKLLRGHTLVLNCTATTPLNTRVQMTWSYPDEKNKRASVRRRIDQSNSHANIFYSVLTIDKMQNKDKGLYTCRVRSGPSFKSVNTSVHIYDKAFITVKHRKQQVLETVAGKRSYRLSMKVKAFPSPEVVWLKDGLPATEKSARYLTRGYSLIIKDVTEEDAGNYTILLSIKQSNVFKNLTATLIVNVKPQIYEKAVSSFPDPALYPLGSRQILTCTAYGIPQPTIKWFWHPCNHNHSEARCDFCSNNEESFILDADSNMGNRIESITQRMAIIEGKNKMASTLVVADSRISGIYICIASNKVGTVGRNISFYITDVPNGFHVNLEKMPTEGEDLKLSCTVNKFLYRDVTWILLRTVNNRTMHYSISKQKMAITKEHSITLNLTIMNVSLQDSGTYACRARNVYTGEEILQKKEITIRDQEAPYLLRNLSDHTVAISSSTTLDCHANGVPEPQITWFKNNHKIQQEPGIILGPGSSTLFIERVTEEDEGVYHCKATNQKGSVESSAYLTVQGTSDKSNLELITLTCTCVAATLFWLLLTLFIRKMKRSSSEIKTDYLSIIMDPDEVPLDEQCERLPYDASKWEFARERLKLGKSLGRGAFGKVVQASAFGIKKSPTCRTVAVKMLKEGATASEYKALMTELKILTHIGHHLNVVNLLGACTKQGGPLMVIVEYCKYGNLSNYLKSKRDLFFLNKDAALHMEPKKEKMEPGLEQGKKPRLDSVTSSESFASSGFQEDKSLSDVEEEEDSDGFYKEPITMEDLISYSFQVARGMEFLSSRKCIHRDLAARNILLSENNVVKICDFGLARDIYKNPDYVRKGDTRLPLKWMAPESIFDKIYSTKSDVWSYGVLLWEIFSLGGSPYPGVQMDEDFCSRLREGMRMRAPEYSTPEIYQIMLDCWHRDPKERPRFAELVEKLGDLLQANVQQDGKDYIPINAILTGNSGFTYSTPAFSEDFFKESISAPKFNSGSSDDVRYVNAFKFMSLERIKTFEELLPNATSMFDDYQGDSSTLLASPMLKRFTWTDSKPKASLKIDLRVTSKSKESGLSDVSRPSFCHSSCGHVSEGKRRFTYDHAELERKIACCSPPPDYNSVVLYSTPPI
Listing: residual activity of selected compounds
Answer in %, number only, no unit symbol.

Example entries begin here.
cpd-smiles | quantity-kind | unit-spec | result
O=C1NC(=O)c2c1c1c3ccccc3[nH]c1c1[nH]c3cc(Br)ccc3c21 | residual activity | % | 56.5
CCOc1cc2ncnc(Nc3cccc(Br)c3)c2cc1OCC | residual activity | % | 85

Now let's try a different one.
Checklist item: residual activity tested on FLT1 (human) (UniProt P17948), entry COc1cc2c(N3CCN(C(=O)Nc4ccc(OC(C)C)cc4)CC3)ncnc2cc1OCCCN1CCCCC1 , value?
99.4

---

biological target: KIT (human) (UniProt P10721); assay: radiometric filter-binding kinase assay, Kinase HotSpot; details: compound 0.5 µM; ATP 10 µM
Sequence (P10721 whole entry, looked up): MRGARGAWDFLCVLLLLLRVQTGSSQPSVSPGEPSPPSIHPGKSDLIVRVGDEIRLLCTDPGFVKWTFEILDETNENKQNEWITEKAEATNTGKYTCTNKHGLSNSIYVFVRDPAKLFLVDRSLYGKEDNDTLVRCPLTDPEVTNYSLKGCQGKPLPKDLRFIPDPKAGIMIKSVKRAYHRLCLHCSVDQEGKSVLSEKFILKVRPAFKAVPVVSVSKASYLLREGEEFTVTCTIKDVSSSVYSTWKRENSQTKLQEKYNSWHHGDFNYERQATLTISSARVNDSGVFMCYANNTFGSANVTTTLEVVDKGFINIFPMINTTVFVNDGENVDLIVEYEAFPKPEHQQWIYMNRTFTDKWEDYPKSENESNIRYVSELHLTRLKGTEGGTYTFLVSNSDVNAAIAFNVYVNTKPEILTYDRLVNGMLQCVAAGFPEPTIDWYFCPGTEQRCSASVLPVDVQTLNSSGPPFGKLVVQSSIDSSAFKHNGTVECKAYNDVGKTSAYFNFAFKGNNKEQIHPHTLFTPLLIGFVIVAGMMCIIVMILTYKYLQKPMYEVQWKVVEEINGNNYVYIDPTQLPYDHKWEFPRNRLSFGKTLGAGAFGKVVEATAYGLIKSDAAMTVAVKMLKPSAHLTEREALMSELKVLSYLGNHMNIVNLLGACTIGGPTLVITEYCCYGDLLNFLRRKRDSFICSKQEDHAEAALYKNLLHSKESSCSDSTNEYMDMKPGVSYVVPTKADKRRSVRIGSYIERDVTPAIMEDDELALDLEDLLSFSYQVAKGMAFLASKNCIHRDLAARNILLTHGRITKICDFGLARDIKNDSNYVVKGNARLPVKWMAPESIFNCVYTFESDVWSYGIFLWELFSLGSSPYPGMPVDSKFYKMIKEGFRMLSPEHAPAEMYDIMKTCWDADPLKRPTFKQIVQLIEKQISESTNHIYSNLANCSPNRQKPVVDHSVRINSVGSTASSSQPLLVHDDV
Outcome: Satisfied for residual activity of at least 90%; Not satisfied for anything lower.

Look over these answered cases.
cpd-smiles | qualitative-label
O=C(O)c1ccc2c3c1cccc3c(=O)n1c3ccccc3nc21 | Satisfied
N#CCCc1ccc2c(c1)-c1[nH]c3ccc([N+](=O)[O-])cc3c1CC(=O)N2 | Not satisfied
CCCCc1c(-c2ccc(O)cc2)[nH]c2nccnc12 | Not satisfied
N#C/C(=C1/Nc2ccccc2S1)c1ccnc(NCCc2cccnc2)n1 | Satisfied
Cn1cc(/C=C2\C(=O)Nc3ccc(S(N)(=O)=O)cc32)c2ccccc21 | Not satisfied

Would you kindly look at the next entry?
Decide: residual activity of COc1cc2c(cc1OC)-c1[nH]nc(Nc3cccc(F)c3)c1C2 >= 90%?
Not satisfied

---

target: RET (human) (UniProt P07949); test: radiometric filter-binding kinase assay, Kinase HotSpot; details: compound 0.5 µM; ATP 10 µM
Sequence (P07949 whole entry, looked up): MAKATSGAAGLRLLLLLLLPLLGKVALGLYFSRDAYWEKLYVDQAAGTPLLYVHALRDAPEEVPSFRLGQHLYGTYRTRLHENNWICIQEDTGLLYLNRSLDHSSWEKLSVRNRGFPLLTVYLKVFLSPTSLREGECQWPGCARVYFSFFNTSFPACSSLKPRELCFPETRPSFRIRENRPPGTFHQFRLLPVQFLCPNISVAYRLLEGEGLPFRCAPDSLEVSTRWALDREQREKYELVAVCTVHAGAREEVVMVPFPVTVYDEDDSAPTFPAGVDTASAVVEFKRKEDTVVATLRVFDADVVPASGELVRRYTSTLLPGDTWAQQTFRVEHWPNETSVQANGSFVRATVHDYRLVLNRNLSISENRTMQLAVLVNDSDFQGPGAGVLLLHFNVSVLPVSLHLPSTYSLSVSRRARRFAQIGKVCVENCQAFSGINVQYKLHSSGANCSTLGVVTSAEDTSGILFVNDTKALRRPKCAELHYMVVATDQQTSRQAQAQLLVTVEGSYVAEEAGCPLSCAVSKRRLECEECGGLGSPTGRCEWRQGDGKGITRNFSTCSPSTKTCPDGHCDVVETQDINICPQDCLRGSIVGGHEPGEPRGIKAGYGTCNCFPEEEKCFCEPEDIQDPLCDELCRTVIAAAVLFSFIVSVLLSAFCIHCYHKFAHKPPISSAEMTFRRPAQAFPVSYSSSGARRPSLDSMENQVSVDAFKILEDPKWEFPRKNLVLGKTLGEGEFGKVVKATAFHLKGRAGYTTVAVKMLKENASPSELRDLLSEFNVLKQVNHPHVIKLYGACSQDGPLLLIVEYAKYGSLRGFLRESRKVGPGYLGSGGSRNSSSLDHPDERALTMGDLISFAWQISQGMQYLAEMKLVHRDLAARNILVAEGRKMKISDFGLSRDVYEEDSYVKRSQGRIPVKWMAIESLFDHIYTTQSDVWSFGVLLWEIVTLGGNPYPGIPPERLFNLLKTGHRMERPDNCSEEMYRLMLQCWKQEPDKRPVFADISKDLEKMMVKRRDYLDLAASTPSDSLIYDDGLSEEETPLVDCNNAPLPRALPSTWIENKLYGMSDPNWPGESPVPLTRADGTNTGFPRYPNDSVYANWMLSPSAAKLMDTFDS
quantity-kind: residual activity (%)
Answer in %, number only, no unit symbol.

cpd-smiles | result
COc1cc2c(N3CCN(C(=O)Nc4ccc(OC(C)C)cc4)CC3)ncnc2cc1OCCCN1CCCCC1 | 91.5
CCCCc1c(-c2ccc(O)cc2)[nH]c2nccnc12 | 52.6

Record request: residual activity value, item O=C(c1ccccc1)c1ccc(N2CCOCC2)cc1O
97.8

Record request: residual activity value, item Cn1cc(/C=C2\C(=O)Nc3ccc(S(N)(=O)=O)cc32)c2ccccc21
1.93

Record request: residual activity value, item Cc1cc(Nc2nc(-c3ccccc3)nc3ccccc23)n[nH]1
8.76

Record request: residual activity value, item CCc1nc(-c2ccc(OC)cc2)[nH]c1-c1ccncc1
99.2

Record request: residual activity value, item N#C/C(=C1/Nc2ccccc2S1)c1ccnc(NCCc2cccnc2)n1
70.1

Record request: residual activity value, item O=c1c2ccccc2[nH]c(=S)n1CCN1CCC(=C(c2ccc(F)cc2)c2ccc(F)cc2)CC1
106

Record request: residual activity value, item O=C(O)c1ccc2c3c1cccc3c(=O)n1c3ccccc3nc21
96.8

Record request: residual activity value, item N#Cc1c(NC(=O)c2cccc3ccccc23)sc2c1CCCC2
105

Record request: residual activity value, item O=c1c(-c2ccc(F)cc2)c(-c2ccncc2)[nH]n1-c1ccc(Cl)cc1
99.6

Record request: residual activity value, item N/C(=N\N=C/c1ccc(-c2cccc([N+](=O)[O-])c2)o1)N[N+](=O)[O-]
99.9

Record request: residual activity value, item c1ccc(-c2cnc(Nc3ccc(OCCN4CCCC4)cc3)s2)cc1
84.2

Record request: residual activity value, item COc1cccc(-c2cc(=O)c3ccccc3o2)c1N
107

Record request: residual activity value, item O=c1[nH]c2ccccc2n1C1CCN(Cc2ccc(-c3nc4cc5[nH]cnc5cc4nc3-c3ccccc3)cc2)CC1
96.7

Record request: residual activity value, item O=S(=O)(NCCNC/C=C/c1ccc(Br)cc1)c1cccc2cnccc12
102
